Cited source: ChEMBL document CHEMBL4715856

# TEST DESCRIPTION: Inhibition of SARS-CoV 3C-like protease using abz-SVTLQSG-Tyr(NO2)R as substrate by spectrofluorimetric assay
# Design: species or system Severe acute respiratory syndrome-related coronavirus
MEASUREMENT KIND: pIC50
Formally, pIC50 is defined as -log10 of the concentration c, with c in mol/L.

Which value of pIC50 has been reported for O=C(Cc1cncc(Br)c1)c1ccc(-c2ccc(Cl)cc2)o1 in the records?
4.89

----------
# TEST DESCRIPTION: Inhibition of 3C-like protease in SARS-CoV2 infected in African green monkey vero cells assessed as antiviral activity incubated for 1 hr by crystal violet staining based plaque reduction assay
# Format: cell-based
# CONDITION: Severe acute respiratory syndrome coronavirus 2, Vero
MEASUREMENT KIND: EC50

Dear colleague, I am looking for the recorded EC50 of the following compound: Cc1cc(C(=O)N[C@@H](C)C(=O)N[C@H](C(=O)N[C@@H](CC(C)C)C(=O)N[C@H](/C=C/C(=O)OCc2ccccc2)C[C@@H]2CCNC2=O)C(C)C)no1
16.8 µM
